Provide the recorded IC50 for the entries that follow.
- System: Caco-2
- Method: Cytotoxicity against human Caco2 cells assessed as reduction in cell viability after 24 hrs by MTT assay
- Assay type: functional, cell-based
- Test Conditions: Caco-2, 24 h
The figure you give is taken to be in µM; do not add the unit.

Query: Tell me the measured IC50 of `COc1cccc2c1C(=O)c1c(O)c3c(c(O)c1C2=O)C[C@@](O)(C(=O)CO)C[C@@H]3O[C@H]1C[C@H](N)[C@H](O)[C@H](C)O1` , please.
Result: 21

Query: Entry `O=C(NCCN1CCC(Cc2ccccc2)CC1)c1cccc(CO[N+](=O)[O-])c1` : reported IC50 = ?
Result: 59

Query: # get_value(readout='IC50', item= `O=C(NCCCCN1CCC(Cc2ccccc2)CC1)c1ccc(CO[N+](=O)[O-])cc1` )
Result: 28
